Target: UniProtKB P35218
Sequence (P35218 39-305): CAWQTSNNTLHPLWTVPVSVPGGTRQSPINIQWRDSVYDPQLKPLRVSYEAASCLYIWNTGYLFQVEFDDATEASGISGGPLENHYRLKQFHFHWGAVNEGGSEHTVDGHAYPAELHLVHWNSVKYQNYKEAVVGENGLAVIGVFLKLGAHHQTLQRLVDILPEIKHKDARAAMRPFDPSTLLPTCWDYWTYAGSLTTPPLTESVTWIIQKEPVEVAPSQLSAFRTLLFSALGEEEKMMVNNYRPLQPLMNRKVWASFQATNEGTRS
Assay: CA activation, stopped-flow CO2 hydrase assay
Format: biochemical
Conditions: KA ratio for the indicated enzyme isoforms, value in square brackets
endpoint name: KA ratio [hCA VA/hCA VII]
Answers are plain numbers.

Here's what some known entries look like.
Input: Recorded KA ratio [hCA VA/hCA VII] for CCN(CC)CCNC(=O)C(=O)c1cn(Cc2ccccc2)c2ccc(OCCO)cc12 , please?
Output: 2.9

Input: I have this molecule here, CCOC(=O)c1cn(Cc2ccccc2)c2ccc(OCCCN(C)C)cc12 , and I need its recorded KA ratio [hCA VA/hCA VII].
Output: 8.3

Input: Request the reported KA ratio [hCA VA/hCA VII] associated with CN(C)CCCNC(=O)C(=O)c1cn(Cc2ccccc2)c2ccc(OCCO)cc12
Output: 2.3

Please look at the following molecule next.
Input: Would you kindly share the measured KA ratio [hCA VA/hCA VII] for CCOC(=O)c1cn(Cc2ccccc2)c2ccc(OCCN(C)C)cc12 ?
Output: 3.5

Measured values drawn from paper PMC8344252 for this set.
